- Test system: UO-31 renal
- procedure-text: NCI-60 one-dose screen, 48 h (100 = growth as untreated, 0 = no growth, -100 = all killed)
- assay-conditions: 10 µM unless noted
This is part of a sample that, as a whole, favours compounds with a hit. Of some 83,000 tested, about 20% had one in any assay.
measurement-type: growth (%)
Expressed in %, but write only the number.

// worked examples, growth included
>>> endpoint_result("CC1=C(SCCC(=O)OCC(=O)NCCC[Te]c2ccccc2)C(=O)c2ccccc2C1=O")
-0.644
>>> endpoint_result("CCC1([N+](=O)[O-])COP(=O)(NCc2cccnc2)OC1 (stereo not drawn)")
91.1

Please turn your attention to the following entry.
Ask: Query (compound): CCCCn1cc(C(=O)/C(C#N)=C/c2cc3ccccc3nc2Cl)c2cc(OC)ccc21 ; field requested: growth
Reply: 61.6

All figures here come from PubChem BioAssay (NCI).
